B1: Pistol ribozyme (parent)
chain: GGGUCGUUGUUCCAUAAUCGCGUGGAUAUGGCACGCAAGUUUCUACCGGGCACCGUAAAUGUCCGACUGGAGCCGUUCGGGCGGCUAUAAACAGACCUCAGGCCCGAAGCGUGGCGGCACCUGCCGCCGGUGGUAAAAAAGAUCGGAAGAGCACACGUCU

Variants of: B1
Experiment: aptazyme ON/OFF ratio, guanine; higher = stronger switching; co-transcriptional cleavage with and without guanine
measuredEndpoint: aptazyme ON/OFF ratio

Example cases with answers are listed next.
[
  {
    "mutationSpec": "U7A U8G G9A U10A U11A C12G C13G",
    "measuredEndpoint": "aptazyme ON/OFF ratio",
    "assayValue": 1.34
  },
  {
    "mutationSpec": "U7G U8A G9A U11C C12U C13G",
    "measuredEndpoint": "aptazyme ON/OFF ratio",
    "assayValue": 1.29
  },
  {
    "mutationSpec": "U8G G9C U10C U11G C12G",
    "measuredEndpoint": "aptazyme ON/OFF ratio",
    "assayValue": 1.1
  },
  {
    "mutationSpec": "U8C U10A U11C C12A C13G",
    "measuredEndpoint": "aptazyme ON/OFF ratio",
    "assayValue": 1.07
  },
  {
    "mutationSpec": "U7C U8G U11C C13U",
    "measuredEndpoint": "aptazyme ON/OFF ratio",
    "assayValue": 1.36
  }
]

Q: Item U7G U8G G9C U10A C12G C13A has what recorded aptazyme ON/OFF ratio?
Result: 1.05

Q: Similarly, U7C U8G U10A U11A C12A C13A ?
Result: 1.1

Q: Similarly, U7G U11C C13U ?
Result: 1.07
